Tested on: R11-AMACH smooth pigweed
assay method text: Greenhouse screen of ALS-inhibiting herbicides on resistant smooth pigweed biotype
Assay type: in vivo, Amaranthus hybridus L.
measurement context: rate 1×, 3 WAT
Short version: Height at least 20 cm is Met, less is Not met.

Answered cases to consult:
1. COc1cc(OC)nc(Sc2cccc(Cl)c2C(=O)O)n1 | Not met
2. COc1nc(C)nc(NC(=O)NS(=O)(=O)c2ccsc2C(=O)O)n1 | Met
3. CCOc1nc(F)cc2nc(S(=O)(=O)Nc3c(Cl)cccc3C(=O)OC)nn12 | Met

*Q* Form field: Height at least 20 cm? Entry: COc1cc(Cl)nc(NC(=O)NS(=O)(=O)c2ccccc2C(=O)O)n1
*A* Met
